- subject_of_test: Calmodulin-1 (Homo sapiens)
- assay_procedure: Inhibition of recombinant calmodulin mediated bovine brain PDE1 activation assessed as effect on inorganic phosphate release using variable calmodulin level by spectrophotometry
recorded_metric: Ki (µM)

a: C=C(C)[C@H]1COc2c(C)cc3oc4c(C[C@H](O)C(C)(C)O)ccc(O)c4c(=O)c3c2[C@@H]1O [TAJIXANTHONE HYDRATE]
b: C=C(C)[C@H]1COc2c(C)cc3oc4c([C@H](OC)[C@@H]5OC5(C)C)ccc(O)c4c(=O)c3c2[C@@H]1O
IN: Between the two listed entries a and b , which has its Ki at the higher number? Field: selected label. Fill in the label of the entry you choose.
OUT: b
